Tested on: 843782-103-R-J1-PDC complex spheroid viability
protocolDetails: Anticancer human tumor 843782-103-R-J1-PDC patient-derived lung adenocarcinoma cell line growth inhibition [RAS]
assayContext: second compound 0.000949 µM; first compound 0.01 µM; hits give low values
What viability, T/C was measured for each of the following?
The answer is to be given in %; state only the numeric part.

## Task Observed viability, T/C on 843782-103-R-J1-PDC complex spheroid viability for Nc1ccn(C2OC(CO)C(O)C2(F)F)c(=O)n1 (stereo not drawn) + CCn1c(-c2cc(N3CCN(C)CC3)cnc2C(C)OC)c2c3cc(ccc31)-c1csc(n1)CC(NC(=O)C1CC1C)C(=O)N1CCCC(N1)C(=O)OCC(C)(C)C2 , please.
## Result 73.4

## Task Observed viability, T/C on 843782-103-R-J1-PDC complex spheroid viability for O=C(c1ccc(F)c(F)c1Nc1ccc(I)cc1F)N1CC(O)([C@@H]2CCCCN2)C1 + CCn1c(-c2cccnc2C(C)OC)c2c3cc(ccc31)N1CCOC(CC(NC(=O)C(C(C)C)N(C)C(=O)C3(F)CCN(C(=O)C#CC(C)(C)N(C)C)CC3)C(=O)N3CCCC(N3)C(=O)OCC(C)(C)C2)C1 , please.
## Result 56.1

## Task Observed viability, T/C on 843782-103-R-J1-PDC complex spheroid viability for Nc1ccn(C2OC(CO)C(O)C2(F)F)c(=O)n1 (stereo not drawn) + CCn1c(-c2cccnc2C(C)OC)c2c3cc(ccc31)N1CCOC(CC(NC(=O)C(C(C)C)N(C)C(=O)C3(F)CCN(C(=O)C#CC(C)(C)N(C)C)CC3)C(=O)N3CCCC(N3)C(=O)OCC(C)(C)C2)C1 , please.
## Result 52

## Task Observed viability, T/C on 843782-103-R-J1-PDC complex spheroid viability for C=CC(=O)Nc1cc(Nc2nccc(-c3cn(C)c4ccccc34)n2)c(OC)cc1N(C)CCN(C)C + CCn1c(-c2cccnc2C(C)OC)c2c3cc(ccc31)N1CCOC(CC(NC(=O)C(C(C)C)N(C)C(=O)C3(F)CCN(C(=O)C#CC(C)(C)N(C)C)CC3)C(=O)N3CCCC(N3)C(=O)OCC(C)(C)C2)C1 , please.
## Result 60.9

## Task Observed viability, T/C on 843782-103-R-J1-PDC complex spheroid viability for C=CC(=O)N1CCN(c2nc(OCC3CCCN3C)nc3c(F)c(-c4nc(N)cc(C)c4C(F)(F)F)c(Cl)cc23)C(C)C1 (stereo not drawn) + CCn1c(-c2cccnc2C(C)OC)c2c3cc(ccc31)N1CCOC(CC(NC(=O)C(C(C)C)N(C)C(=O)C3(F)CCN(C(=O)C#CC(C)(C)N(C)C)CC3)C(=O)N3CCCC(N3)C(=O)OCC(C)(C)C2)C1 , please.
## Result 67.2

## Task Observed viability, T/C on 843782-103-R-J1-PDC complex spheroid viability for CCN1CCN(Cc2ccc(Nc3ncc(F)c(-c4cc(F)c5nc(C)n(C(C)C)c5c4)n3)nc2)CC1 + CCn1c(-c2cc(N3CCN(C)CC3)cnc2C(C)OC)c2c3cc(ccc31)-c1csc(n1)CC(NC(=O)C1CC1C)C(=O)N1CCCC(N1)C(=O)OCC(C)(C)C2 , please.
## Result 83.1

## Task Observed viability, T/C on 843782-103-R-J1-PDC complex spheroid viability for O=C(c1ccc(F)c(F)c1Nc1ccc(I)cc1F)N1CC(O)([C@@H]2CCCCN2)C1 + CCn1c(-c2cc(N3CCN(C)CC3)cnc2C(C)OC)c2c3cc(ccc31)-c1csc(n1)CC(NC(=O)C1CC1C)C(=O)N1CCCC(N1)C(=O)OCC(C)(C)C2 , please.
## Result 63.4

## Task Observed viability, T/C on 843782-103-R-J1-PDC complex spheroid viability for CC(C)n1nc(-c2ccc3oc(N)nc3c2)c2c(N)ncnc21 + CCn1c(-c2cccnc2C(C)OC)c2c3cc(ccc31)N1CCOC(CC(NC(=O)C(C(C)C)N(C)C(=O)C3(F)CCN(C(=O)C#CC(C)(C)N(C)C)CC3)C(=O)N3CCCC(N3)C(=O)OCC(C)(C)C2)C1 , please.
## Result 52.8

###

Tested on: 843782-103-R-J1-PDC complex spheroid viability
protocolDetails: Anticancer human tumor 843782-103-R-J1-PDC cell line growth inhibition [RAS]; active = viability on the fitted dose curve at most 10% of control; inactive = the rest;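 further: viability read after seven days of compound exposure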
assayContext: second compound 0.03 µM; first compound 0.0316 µM
Response enum: 1 (yes) (active), 0 (no) (inactive)

## Task Tell me the assay call for CC(=O)OC12COC1CC(O)C1(C)C(=O)C(O)C3=C(C)C(OC(=O)C(O)C(NC(=O)OC(C)(C)C)c4ccccc4)CC(O)(C(OC(=O)c4ccccc4)C21)C3(C)C (stereo not drawn) + CCn1c(-c2cccnc2C(C)OC)c2c3cc(ccc31)N1CCOC(CC(NC(=O)C(C(C)C)N(C)C(=O)C3(F)CCN(C(=O)C#CC(C)(C)N(C)C)CC3)C(=O)N3CCCC(N3)C(=O)OCC(C)(C)C2)C1 please.
## Result 1 (yes)

## Task Tell me the assay call for CC1(O)CCCC1n1c(=O)c(C(F)F)cc2cnc(NC3CCN(S(C)(=O)=O)CC3)nc21 (stereo not drawn) + CCn1c(-c2cc(N3CCN(C)CC3)cnc2C(C)OC)c2c3cc(ccc31)-c1csc(n1)CC(NC(=O)C1CC1C)C(=O)N1CCCC(N1)C(=O)OCC(C)(C)C2 please.
## Result 0 (no)

## Task Tell me the assay call for CC(C)NCC(C(=O)N1CCN(c2ncnc3c2C(C)CC3O)CC1)c1ccc(Cl)cc1 (stereo not drawn) + CCn1c(-c2cccnc2C(C)OC)c2c3cc(ccc31)N1CCOC(CC(NC(=O)C(C(C)C)N(C)C(=O)C3(F)CCN(C(=O)C#CC(C)(C)N(C)C)CC3)C(=O)N3CCCC(N3)C(=O)OCC(C)(C)C2)C1 please.
## Result 0 (no)

## Task Tell me the assay call for CCC(CC)c1cc(NC2CCC(N)C2)n2nccc2n1 (stereo not drawn) + CCn1c(-c2cccnc2C(C)OC)c2c3cc(ccc31)N1CCOC(CC(NC(=O)C(C(C)C)N(C)C(=O)C3(F)CCN(C(=O)C#CC(C)(C)N(C)C)CC3)C(=O)N3CCCC(N3)C(=O)OCC(C)(C)C2)C1 please.
## Result 0 (no)

## Task Tell me the assay call for Nc1ccn(C2OC(CO)C(O)C2(F)F)c(=O)n1 (stereo not drawn) + CCn1c(-c2cc(N3CCN(C)CC3)cnc2C(C)OC)c2c3cc(ccc31)-c1csc(n1)CC(NC(=O)C1CC1C)C(=O)N1CCCC(N1)C(=O)OCC(C)(C)C2 please.
## Result 0 (no)

## Task Tell me the assay call for NC1c2ccccc2OC12CCN(c1cnc3c(N4CCCc5ncccc54)n[nH]c3n1)CC2 (stereo not drawn) + CCn1c(-c2cccnc2C(C)OC)c2c3cc(ccc31)N1CCOC(CC(NC(=O)C(C(C)C)N(C)C(=O)C3(F)CCN(C(=O)C#CC(C)(C)N(C)C)CC3)C(=O)N3CCCC(N3)C(=O)OCC(C)(C)C2)C1 please.
## Result 0 (no)

## Task Tell me the assay call for CC(C)n1nc(-c2ccc3oc(N)nc3c2)c2c(N)ncnc21 + CCn1c(-c2cc(N3CCN(C)CC3)cnc2C(C)OC)c2c3cc(ccc31)-c1csc(n1)CC(NC(=O)C1CC1C)C(=O)N1CCCC(N1)C(=O)OCC(C)(C)C2 please.
## Result 1 (yes)

## Task Tell me the assay call for CC(Nc1ccc2c(c1)OCCn1cc(N3C(=O)OCC3C(F)F)nc1-2)C(N)=O (stereo not drawn) + CCn1c(-c2cc(N3CCN(C)CC3)cnc2C(C)OC)c2c3cc(ccc31)-c1csc(n1)CC(NC(=O)C1CC1C)C(=O)N1CCCC(N1)C(=O)OCC(C)(C)C2 please.
## Result 0 (no)

## Task Tell me the assay call for O=C(c1ccc(F)c(F)c1Nc1ccc(I)cc1F)N1CC(O)([C@@H]2CCCCN2)C1 + CCn1c(-c2cc(N3CCN(C)CC3)cnc2C(C)OC)c2c3cc(ccc31)-c1csc(n1)CC(NC(=O)C1CC1C)C(=O)N1CCCC(N1)C(=O)OCC(C)(C)C2 please.
## Result 0 (no)

## Task Tell me the assay call for CC(Nc1ccc2c(c1)OCCn1cc(N3C(=O)OCC3C(F)F)nc1-2)C(N)=O (stereo not drawn) + CCn1c(-c2cccnc2C(C)OC)c2c3cc(ccc31)N1CCOC(CC(NC(=O)C(C(C)C)N(C)C(=O)C3(F)CCN(C(=O)C#CC(C)(C)N(C)C)CC3)C(=O)N3CCCC(N3)C(=O)OCC(C)(C)C2)C1 please.
## Result 0 (no)

## Task Tell me the assay call for CC(=O)OC12COC1CC(O)C1(C)C(=O)C(O)C3=C(C)C(OC(=O)C(O)C(NC(=O)OC(C)(C)C)c4ccccc4)CC(O)(C(OC(=O)c4ccccc4)C21)C3(C)C (stereo not drawn) + CCn1c(-c2cc(N3CCN(C)CC3)cnc2C(C)OC)c2c3cc(ccc31)-c1csc(n1)CC(NC(=O)C1CC1C)C(=O)N1CCCC(N1)C(=O)OCC(C)(C)C2 please.
## Result 1 (yes)

## Task Tell me the assay call for CC1(O)CCCC1n1c(=O)c(C(F)F)cc2cnc(NC3CCN(S(C)(=O)=O)CC3)nc21 (stereo not drawn) + CCn1c(-c2cccnc2C(C)OC)c2c3cc(ccc31)N1CCOC(CC(NC(=O)C(C(C)C)N(C)C(=O)C3(F)CCN(C(=O)C#CC(C)(C)N(C)C)CC3)C(=O)N3CCCC(N3)C(=O)OCC(C)(C)C2)C1 please.
## Result 0 (no)

## Task Tell me the assay call for NC1c2ccccc2OC12CCN(c1cnc3c(N4CCCc5ncccc54)n[nH]c3n1)CC2 (stereo not drawn) + CCn1c(-c2cc(N3CCN(C)CC3)cnc2C(C)OC)c2c3cc(ccc31)-c1csc(n1)CC(NC(=O)C1CC1C)C(=O)N1CCCC(N1)C(=O)OCC(C)(C)C2 please.
## Result 0 (no)
